tested on: pERK in ASPC1 cells; test: Inhibition of KRas phosphorylation of ERK (Cisbio HTRF pERK assay); settings: Homo sapiens, ASPC1, read-out: Inhibition (HTRF IC50) of KRas-mediated Phosphorylation of ERK, AsPC-1
Consider the following compounds; for each one, report its IC50.
Quick note: unit goes after the number.

For orientation, consider the following solved cases.
CCc1c(F)ccc2cc(O)cc(-c3ncc4c(N5CCCCCCC5)nc(OC[C@@]56CCCN5C[C@H](F)C6)nc4c3F)c12	49 nM
Oc1cc(-c2ncc3c(N4CCCC5(CC(O)C5)C4)nc(OC[C@@]45CCCN4C[C@H](F)C5)nc3c2F)c2c(Cl)c(F)ccc2c1 (stereo partly drawn)	42 nM
CCc1c(F)ccc2cc(O)cc(-c3ncc4c(N5CCOCC(OC)C5)nc(OC[C@@]56CCCN5C[C@H](F)C6)nc4c3F)c12 (stereo partly drawn)	109 nM
CCc1c(F)ccc2cc(O)cc(-c3ncc4c(N5CCC[C@@](C)(O)C5)nc(OCC5(CN6CCCCC6)CC5)nc4c3F)c12	4 nM
CCc1c(F)ccc2cc(O)cc(-c3ncc4c(N5CCOCC(O)C5)nc(OC[C@@]56CCCN5C[C@H](F)C6)nc4c3F)c12 (stereo partly drawn)	83 nM

Asked: Fill in the blank: the reported IC50 of C#Cc1c(F)ccc2cc(O)cc(-c3ncc4c(N5CCCC6(CNC(=O)N6)C5)nc(OC[C@@]56CCCN5C[C@H](F)C6)nc4c3F)c12 (stereo partly drawn) is ____.
Given back: 477 nM
